# assayed.target: Sterol O-acyltransferase 1 (Mus musculus, UniProt Q61263)
# Sequence (Q61263 whole entry): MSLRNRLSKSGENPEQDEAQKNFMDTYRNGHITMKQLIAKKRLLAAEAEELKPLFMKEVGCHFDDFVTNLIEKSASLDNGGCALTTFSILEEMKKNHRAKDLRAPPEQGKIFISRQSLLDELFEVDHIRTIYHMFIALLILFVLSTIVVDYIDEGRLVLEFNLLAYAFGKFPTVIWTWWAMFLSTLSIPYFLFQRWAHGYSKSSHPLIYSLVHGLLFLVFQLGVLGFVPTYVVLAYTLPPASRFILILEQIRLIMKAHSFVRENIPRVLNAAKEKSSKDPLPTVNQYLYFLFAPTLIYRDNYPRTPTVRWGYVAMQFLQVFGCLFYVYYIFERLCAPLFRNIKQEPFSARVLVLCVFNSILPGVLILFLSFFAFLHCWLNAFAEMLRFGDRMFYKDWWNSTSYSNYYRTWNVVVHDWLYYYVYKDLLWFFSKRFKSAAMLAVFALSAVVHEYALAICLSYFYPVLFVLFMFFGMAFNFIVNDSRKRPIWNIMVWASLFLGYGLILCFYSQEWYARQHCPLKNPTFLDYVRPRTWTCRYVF
# assay.comment: Inhibition of Acyl coenzyme A:cholesterol acyltransferase in J774 Macrophage cell culture
# Type: cell-based
We begin with a simple list: items and their reported IC50.
endpoint.name: IC50 (nM)

In [3]: df
Out[3]:
                                smiles_data                            assayed_target  endpoint_name  numeric_readout
0  c1ccc(-c2nc(SCCCCCSc3ncnc4nc[nH]c34)[nH]c2-c2ccccc2)cc1  Sterol O-acyltransferase 1 (Mus musculus, UniProt Q61263)           IC50             7510
1  COc1ccc(-c2nc(SCCCCCn3c4ccccc4c4ccccc43)[nH]c2-c2ccc(OC)cc2)cc1  Sterol O-acyltransferase 1 (Mus musculus, UniProt Q61263)           IC50            55700
2  CCCCCCCN(CCCCCSc1nc(-c2ccccc2)c(-c2ccccc2)[nH]1)c1nc2ccccc2o1  Sterol O-acyltransferase 1 (Mus musculus, UniProt Q61263)           IC50               20
3  CC(C)c1nc2ccccc2n1CCCCCSc1nc(-c2ccccc2)c(-c2ccccc2)[nH]1  Sterol O-acyltransferase 1 (Mus musculus, UniProt Q61263)           IC50              710
4  COc1ccc(-c2nc(SCCCCCSc3nc(-c4ccc(OC)cc4)c(-c4ccc(OC)cc4)[nH]3)[nH]c2-c2ccc(OC)cc2)cc1  Sterol O-acyltransferase 1 (Mus musculus, UniProt Q61263)           IC50              200
5  COc1ccc(-c2nc(SCCCCCSc3nc4c([nH]3)c(=O)n(C)c(=O)n4C)[nH]c2-c2ccc(OC)cc2)cc1  Sterol O-acyltransferase 1 (Mus musculus, UniProt Q61263)           IC50             8330
6  CN(C)c1ccc(-c2nc(SCCCCCSc3nc(-c4ccc(N(C)C)cc4)c(-c4ccc(N(C)C)cc4)[nH]3)[nH]c2-c2ccc(N(C)C)cc2)cc1  Sterol O-acyltransferase 1 (Mus musculus, UniProt Q61263)           IC50               60
7  CCN(CCCCCSc1nc(-c2ccc(OC)cc2)c(-c2ccc(OC)cc2)[nH]1)c1nc2ccccc2o1  Sterol O-acyltransferase 1 (Mus musculus, UniProt Q61263)           IC50               90

---

# assayed.target: Sterol O-acyltransferase 1 (Mus musculus, UniProt Q61263)
# assay.comment: Inhibition of Acyl coenzyme A:cholesterol acyltransferase in J774 Macrophage cell culture
The threshold is 500 nM. Values of IC50 beneath it are tagged TRUE; values meeting or exceeding it are tagged FALSE.

>>> print(df.to_string())
                                   compound  label_value
0  c1ccc(-c2nc(SCCCCCSc3nc(-c4ccccc4)c(-c4ccccc4)[nH]3)[nH]c2-c2ccccc2)cc1        FALSE
1  CC(C)c1nc2ccccc2n1CCCCCSc1nc(-c2ccc(N(C)C)cc2)c(-c2ccc(N(C)C)cc2)[nH]1         TRUE
2  CCCCCCCN(CCCCCSc1nc(-c2ccccc2)c(-c2ccccc2)[nH]1)C(=O)Nc1ccc(F)cc1F [LECIMIBIDE]        FALSE
3  COc1ccc(-c2nc(SCCCCCSc3ncnc4nc[nH]c34)[nH]c2-c2ccc(OC)cc2)cc1        FALSE
4  COc1ccc(-c2nc(SCCCCCn3c(C(C)C)nc4ccccc43)[nH]c2-c2ccc(OC)cc2)cc1         TRUE
5  COc1ccc(-c2nc(SCC(C)(CSc3nc4ccccc4o3)c3ccccc3)[nH]c2-c2ccc(OC)cc2)cc1 (stereo not drawn)        FALSE
6  COc1ccc(-c2nc(SCCCCCn3c(SC)nc4ccccc43)[nH]c2-c2ccc(OC)cc2)cc1        FALSE
